biological target: Gal(b1-3)GlcNAc(b1-3)Gal(b1-4)Glc; assay: glycan array binding signal (z-score within array); higher = stronger binding; settings: glycan notation: IUPAC condensed, linker removed
The full list was thinned out, with the strongest signals kept by preference.
Give measured glycan array binding signal (z-score) for each item. Keep answers brief.

- Binder: "SIGNR8 (Mus musculus) (protein) MAGEPEFHQSKNHEEEVTSGEQGFAEHDPEGLICSSKSLQGHLTQVPWLLLLLISLGLFLLMLATLVQVSRIRAYSQGQTQDQQGSSSLDKVAVPREQTHSGLEQIQQIQQQLTQFNASLAGLCRPCPWDWELFQGSCYLFSRTLGSWETSASSCEDLGAHLVIVNSVSEQRFMKYWNVRKNQRSWIGLSDHIHEGSWQWVDGSALKFSFWKEGEPNNDGDEDCVELFMDDWNDNKCTEQNFWVCEQPSAPCPHH"
  glycan array binding signal (z-score): -0.386

Q: Quote glycan array binding signal (z-score) reported for Tachylectin-2 (Tachypleus tridentatus), TAL2_TACTR (protein) VGGESMLRGVYQDKFYQGTYPQNKNDNWLARATLIGKGGWSNFKFLFLSPGGELYGVLNDKIYKGTPPTHDNDNWMGRAKKIGNGGWNQFQFLFFDPNGYLYAVSKDKLYKASPPQSDTDNWIARATEIGSGGWSGFKFLFFHPNGYLYAVHGQQFYKALPPVSNQDNWLARATKIGQGGWDTFKFLFFSSVGTLFGVQGGKFYEDYPPSYAHDNWLARAKLIGNGGWDDFRFLFF please.
Ans: -0.315
